Tested on: S. enterica typhimurium tolC KO
Procedure text: growth AUC normalised to DMSO control (median) (fraction of control); higher = less growth inhibition, active = hit call of the paper
Details: 20 µM
Structures can show the parent of a compound that is named as a salt.
Readout kind: growth AUC normalised to DMSO control
// no unit string in output, number only

// worked examples, growth AUC normalised to DMSO control included
>  <Compound>
CC(CCc1ccccc1)NCC(O)c1ccc(O)c(C(N)=O)c1 (stereo not drawn) [Labetalol hydrochloride]

>  <growth AUC normalised to DMSO control>
0.986

$$$$
>  <Compound>
CC(C)c1nc(CN(C)C(=O)N[C@H](C(=O)N[C@@H](Cc2ccccc2)C[C@H](O)[C@H](Cc2ccccc2)NC(=O)OCc2cncs2)C(C)C)cs1 [Ritonavir]

>  <growth AUC normalised to DMSO control>
0.97

$$$$
>  <Compound>
CN(Cc1cnc2nc(N)nc(N)c2n1)c1ccc(C(=O)N[C@@H](CCC(=O)O)C(=O)O)cc1 [Amethopterin]

>  <growth AUC normalised to DMSO control>
0.7

$$$$
>  <Compound>
CN(C)CCCN1c2ccccc2Sc2ccc(Cl)cc21 [Chlorpromazine hydrochloride]

>  <growth AUC normalised to DMSO control>
0.962

$$$$
>  <Compound>
Clc1ccc(COC(Cn2ccnc2)c2ccc(Cl)cc2Cl)cc1 (stereo not drawn) [Econazole nitrate]

>  <growth AUC normalised to DMSO control>
0.912

$$$$

Looking up CC(C[N+](C)(C)C)OC(N)=O (stereo not drawn) [Bethanechol chloride] , I see its growth AUC normalised to DMSO control listed as 0.993

Looking up COc1ccc(C2CNC(=O)C2)cc1OC1CCCC1 (stereo not drawn) [Rolipram] , I see its growth AUC normalised to DMSO control listed as 0.98

Looking up CCC[C@H](N[C@@H](C)C(=O)N1[C@H](C(=O)O)C[C@@H]2CCCC[C@@H]21)C(=O)OCC [Perindopril] , I see its growth AUC normalised to DMSO control listed as 1

Looking up CCN(CCO)CCCC(C)Nc1ccnc2cc(Cl)ccc12 (stereo not drawn) [Hydroxychloroquine sulfate] , I see its growth AUC normalised to DMSO control listed as 0.995

Looking up N=C(N)c1ccc(OCCCCCOc2ccc(C(=N)N)cc2)cc1 [Pentamidine isethionate] , I see its growth AUC normalised to DMSO control listed as 0.985

###

Tested on: Vibrio cholerae
Procedure text: growth AUC normalised to DMSO control (fraction of control); higher = less growth inhibition, active = hit call of the paper
Details: 20 µM
Give one outcome, nothing more. List: class 1 for active, class 0 for inactive

Test call for this compound, please: CC(=O)O[C@]1(C(C)=O)CC[C@H]2[C@@H]3C=C(C)C4=CC(=O)CC[C@]4(C)[C@H]3CC[C@@]21C [Megestrol acetate] class 0

Test call for this compound, please: CC(=O)NC[C@H]1CN(c2ccc(N3CCOCC3)c(F)c2)C(=O)O1 [Linezolid] class 1

###

System: Vibrio cholerae
Procedure text: growth AUC normalised to DMSO control (fraction of control); higher = less growth inhibition, active = hit call of the paper
Details: 20 µM
Where a name gives a salt, the structure may show the parent alone.
Readout kind: growth AUC normalised to DMSO control
// no unit string in output, number only

// worked examples, growth AUC normalised to DMSO control included
>  <Compound>
Cc1cc(-c2ccccc2)nnc1NCCN1CCOCC1 [Minaprine dihydrochloride]

>  <growth AUC normalised to DMSO control>
1.02

$$$$
>  <Compound>
CCOC(=O)[C@H](CCc1ccccc1)N[C@@H](C)C(=O)N1Cc2ccccc2C[C@H]1C(=O)O [Quinapril hydrochloride]

>  <growth AUC normalised to DMSO control>
0.988

$$$$
>  <Compound>
CC(=O)CCCCn1c(=O)c2c(ncn2C)n(C)c1=O

>  <growth AUC normalised to DMSO control>
0.967

$$$$
>  <Compound>
Nc1nc(=O)c2c([nH]1)NC[C@@H](CNc1ccc(C(=O)N[C@@H](CCC(=O)O)C(=O)O)cc1)N2C=O [Folinic acid calcium salt]

>  <growth AUC normalised to DMSO control>
1.01

$$$$
>  <Compound>
Clc1ccc(Cn2c(CN3CCCC3)nc3ccccc32)cc1 [Clemizole hydrochloride]

>  <growth AUC normalised to DMSO control>
0.922

$$$$

Looking up Clc1ccccc1C(c1ccccc1)(c1ccccc1)n1ccnc1 , I see its growth AUC normalised to DMSO control listed as 0.932

Looking up CC(C)NC[C@H](O)COc1ccc(CC(N)=O)cc1 [(S,-) Atenolol] , I see its growth AUC normalised to DMSO control listed as 0.996

Looking up CN1CCN(c2c(F)cc3c(=O)c(C(=O)O)cn(CCF)c3c2F)CC1 , I see its growth AUC normalised to DMSO control listed as 0.0321

Looking up COC(=O)C1=C(C)NC(C)=C(C(=O)OC)C1c1ccccc1[N+](=O)[O-] , I see its growth AUC normalised to DMSO control listed as 0.971

Looking up Cc1cccc(Nc2ccncc2S(=O)(=O)NC(=O)NC(C)C)c1 [Torsemide] , I see its growth AUC normalised to DMSO control listed as 1.01

Looking up CCCCCCCCCCCCCCCC[N+](C)(C)CCN(Cc1ccc(OC)cc1)c1ncccn1 [Thonzonium bromide] , I see its growth AUC normalised to DMSO control listed as 0.944

Looking up CCCCNc1ccc(C(=O)OCCOCCOCCOCCOCCOCCOCCOCCOCCOC)cc1 [Benzonatate] , I see its growth AUC normalised to DMSO control listed as 0.996

Looking up CCOC(=O)/C=C(C)/C=C/C=C(C)/C=C/c1c(C)cc(OC)c(C)c1C [Etretinate] , I see its growth AUC normalised to DMSO control listed as 0.998

Looking up CC(Oc1ccccc1)C(=O)N[C@@H]1C(=O)N2[C@@H]1SC(C)(C)[C@@H]2C(=O)O (some centres not stated) [Phenethicillin potassium salt] , I see its growth AUC normalised to DMSO control listed as 1

Looking up c1ccc([C@H]2CN3CCSC3=N2)cc1 [Levamisole hydrochloride] , I see its growth AUC normalised to DMSO control listed as 0.981

Looking up Cc1cc(N)c2ccccc2[n+]1CCCCCCCCCC[n+]1c(C)cc(N)c2ccccc21 [Dequalinium dichloride] , I see its growth AUC normalised to DMSO control listed as 0.96

Looking up CCCCC(CC)CNC(=N)NC(=N)NCCCCCCNC(=N)NC(=N)NCC(CC)CCCC (configuration not stated) [Alexidine dihydrochloride] , I see its growth AUC normalised to DMSO control listed as 0.924

###

Tested on: P. vulgatus RND KO
Procedure text: growth AUC normalised to DMSO control (median) (fraction of control); higher = less growth inhibition, active = hit call of the paper
Details: 20 µM
Where a name gives a salt, the structure may show the parent alone.
Readout kind: growth AUC normalised to DMSO control
// no unit string in output, number only

>  <Molecule>
COc1ccc2cc([C@@H](C)C(=O)O)ccc2c1 [(R) Naproxen sodium salt]

>  <Readout kind>
growth AUC normalised to DMSO control

>  <Experimental value>
1.06

$$$$
>  <Molecule>
COCCCC/C(=N\OCCN)c1ccc(C(F)(F)F)cc1 [Fluvoxamine maleate]

>  <Readout kind>
growth AUC normalised to DMSO control

>  <Experimental value>
0.968

$$$$

Known value: P. vulgatus RND KO growth AUC normalised to DMSO control of the molecule CNCC(O)c1ccc(OC(=O)C(C)(C)C)c(OC(=O)C(C)(C)C)c1 (stereo not drawn) [Dipivefrin hydrochloride] equals 1.02

###

Tested on: S. enterica typhimurium tolC KO
Procedure text: growth AUC normalised to DMSO control (median) (fraction of control); higher = less growth inhibition, active = hit call of the paper
Details: 20 µM
Counter-ions that a name gives are not always drawn.
growth AUC normalised to DMSO control listing for selected compounds.
// no unit string in output, number only

>  <Compound>
CCOC(=O)n1ccn(C)c1=S [Carbimazole]

>  <Experimental value>
1.01

$$$$
>  <Compound>
C/C=C(/C(=C/C)c1ccc(O)cc1)c1ccc(O)cc1 [Dienestrol]

>  <Experimental value>
0.857

$$$$
>  <Compound>
O=C(O)COCCN1CCN(C(c2ccccc2)c2ccc(Cl)cc2)CC1 (centres undefined) [Cetirizine dihydrochloride]

>  <Experimental value>
0.994

$$$$
>  <Compound>
Cc1cc(C(C)(C)CC(C)(C)C)ccc1OCCOCC[N+](C)(C)Cc1ccccc1 [Methyl benzethonium chloride]

>  <Experimental value>
0.962

$$$$
>  <Compound>
CS(=O)(=O)c1ccc(C2=C(c3ccccc3)C(=O)OC2)cc1 [Rofecoxib]

>  <Experimental value>
0.98

$$$$

Looking up CCCCc1nc(Cl)c(CO)n1Cc1ccc(-c2ccccc2-c2nnn[nH]2)cc1 [Losartan] , I see its growth AUC normalised to DMSO control listed as 0.995

Looking up O=S(=O)(c1cccc2cnccc12)N1CCCNCC1 [Fasudil Hydrochloride] , I see its growth AUC normalised to DMSO control listed as 1.01

Looking up C[C@H](CCC(=O)O)[C@H]1CC[C@H]2[C@@H]3CC[C@@H]4C[C@H](O)CC[C@]4(C)[C@H]3CC[C@]12C [Lithocholic acid] , I see its growth AUC normalised to DMSO control listed as 0.995

Looking up CC1CC(OC(=O)C(O)c2ccccc2)CC(C)(C)C1 (centres undefined) [Cyclandelate] , I see its growth AUC normalised to DMSO control listed as 0.903
